Values from patent US20110250130A1

Target: T1, Recombinant Human TNF-α/TNFSF1A (human, UniProt P01375 77-233)
T1 construct: Bought reagent (R&D Systems 210-TA); also called hTNF-α; huTNF-α
T1 sequence (P01375 77-233 limits assumed): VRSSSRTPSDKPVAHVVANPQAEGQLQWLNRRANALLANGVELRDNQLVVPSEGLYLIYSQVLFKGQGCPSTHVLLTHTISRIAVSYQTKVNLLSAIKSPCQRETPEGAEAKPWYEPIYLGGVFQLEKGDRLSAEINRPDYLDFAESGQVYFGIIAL
Experiment: SPR (Biacore), antibody captured, TNF-α in solution
READOUT: kon (M⁻¹ s⁻¹)
Reply with just the number (in M⁻¹ s⁻¹).

// known answers, use as guide
Any idea what kon was measured for AB263 (antibody, V domains shown, also called hMAK195VH.2b / hMAK195VL.2a) VH: EVQLVESGGGLVQPGGSLRLSCAASGFTLSDYGVNWVRQAPGKGLEWVSMIWGDGSTDYDSTLKSRFTISKDNSKNTLYLQMNSLRAEDTAVYYCAREWHHGPVAYWGQGTLVTVSS VL: EIVMTQSPATLSLSPGERATLSCKASQAVSSAVAWYQQKPGQSPRLLIYWASTRHTGVPARFSGSGSGTDFTLTISSLQPEDFAVYYCQQHYSTPFTFGQGTKLEIK ?
1.61e+06

Endpoint output: kon of AB261 (antibody, V domains shown, also called hMAK195VH.2b / hMAK195VL.1a) VH: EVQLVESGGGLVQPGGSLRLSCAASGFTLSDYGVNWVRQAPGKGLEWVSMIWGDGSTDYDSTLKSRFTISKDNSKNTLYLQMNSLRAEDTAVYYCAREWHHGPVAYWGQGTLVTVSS VL: DIQMTQSPSSLSASVGDRVTITCKASQAVSSAVAWYQQKPGKSPKLLIYWASTRHTGVPSRFSGSGSGTDFTLTISSLQPEDFATYYCQQHYSTPFTFGQGTKLEIK . Value?
2.36e+06

For AB254 (antibody, V domains shown, also called hMAK195VH.2 / hMAK195VL.2) VH: EVQLVESGGGLVQPGGSLRLSCAASGFTFSDYGVNWVRQAPGKGLEWVSMIWGDGSTDYDSTLKSRFTISRDNSKNTLYLQMNSLRAEDTAVYYCAREWHHGPVAYWGQGTLVTVSS VL: EIVMTQSPATLSLSPGERATLSCKASQAVSSAVAWYQQKPGQAPRLLIYWASTRHTGIPARFSGSGSGTDFTLTISSLQPEDFAVYYCQQHYSTPFTFGQGTKLEIK , what is its reported kon?
2.4e+06

Alright, here's another binder for you.
Entry AB259 (antibody, V domains shown, also called hMAK195VH.2a / hMAK195VL.2a) VH: EVQLVESGGGLVQPGGSLRLSCAVSGFTLSDYGVNWVRQAPGKGLEWLGMIWGDGSTDYDSTLKSRLTISKDNSKSTIYLQMNSLRAEDTAVYYCAREWHHGPVAYWGQGTLVTVSS VL: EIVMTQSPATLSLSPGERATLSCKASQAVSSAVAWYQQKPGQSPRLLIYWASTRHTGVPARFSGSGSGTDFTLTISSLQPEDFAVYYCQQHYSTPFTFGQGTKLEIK has what kon?
3e+06
